Biological target: Human KDR (residues 790-1356) (Homo sapiens (Human))
Sequence (P35968 790-1356): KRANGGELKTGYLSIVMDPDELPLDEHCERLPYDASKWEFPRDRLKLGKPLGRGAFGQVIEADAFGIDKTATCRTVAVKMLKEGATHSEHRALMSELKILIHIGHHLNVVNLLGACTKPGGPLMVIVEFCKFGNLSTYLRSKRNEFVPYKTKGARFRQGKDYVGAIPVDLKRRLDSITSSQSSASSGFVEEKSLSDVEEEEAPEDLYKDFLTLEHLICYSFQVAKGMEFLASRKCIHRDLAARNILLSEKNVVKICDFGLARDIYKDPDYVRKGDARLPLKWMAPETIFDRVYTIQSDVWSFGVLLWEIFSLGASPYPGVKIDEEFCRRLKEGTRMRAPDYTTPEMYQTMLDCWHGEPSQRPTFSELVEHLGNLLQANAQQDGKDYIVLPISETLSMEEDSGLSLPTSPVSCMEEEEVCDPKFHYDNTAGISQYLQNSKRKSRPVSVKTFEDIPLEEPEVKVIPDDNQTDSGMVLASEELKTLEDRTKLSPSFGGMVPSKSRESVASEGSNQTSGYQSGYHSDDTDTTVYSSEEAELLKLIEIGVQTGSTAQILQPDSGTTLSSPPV
Test: Human KDR kinase assay, HTRF KinEase (Example B-2)
Format: biochemical
Conditions: protocol of Example B-2
Method: Kinase activity and compound inhibition were also investigated using the HTRF® KinEase assay (Cisbio Cat #62TKOPEB) per manufacturer's instructions. […] After a 60 min incubation at room temperature, the fluorescence at 665 nm and 620 nm was read on an Envision microplate reader (Perkin Elmer). Kinase activity normalized to DMSO (100% activity) and reference compound at […] and (0% activity) was calculated using the fluorescence ratio 620/665×10,000. […]
pIC50: −log10 of the molar value.
Quick reference for pIC50 among some compounds

Cc1cc2c(Oc3ccc(NC(=O)c4cnc(C)c(-c5ccc(F)cc5)c4O)cc3F)ccnc2cn1: > 7.00
COc1cc2nccc(Oc3ccc(NC(=O)c4c(C)n(C)c(C)c(-c5ccc(F)cc5)c4=O)cc3)c2nc1OC: < 6.52

Shift focus to the following entry.
// lookup pIC50 for `Cc1ncc(C(=O)Nc2ccc(Oc3ccnc4cnccc34)c(F)c2)c(O)c1-c1ccc(F)cc1`
> 7.00
